# testedTarget: T1, human CD33 extracellular domain (human, UniProt P20138 18-259)
# T1 construct: soluble monomeric ECD; also called human CD33 ECD; hCD33
# assayComment: BLI Octet, IgG loaded;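 further: IgGs captured on AHC biosensors, exposed to 100 nM antigen for 3 min association then 3 min dissociation in buffer, kinetics fitted with a 1:1 binding model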
Could you please report measured Kd for the items listed next?
Give bare numbers, in nM.

Lintuzumab (antibody, V domains shown, IgG; also called lintuzumab IgG) VH: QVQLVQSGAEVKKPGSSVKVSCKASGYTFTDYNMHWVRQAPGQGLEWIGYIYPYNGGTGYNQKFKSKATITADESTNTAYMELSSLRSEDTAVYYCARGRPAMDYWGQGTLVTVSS VL: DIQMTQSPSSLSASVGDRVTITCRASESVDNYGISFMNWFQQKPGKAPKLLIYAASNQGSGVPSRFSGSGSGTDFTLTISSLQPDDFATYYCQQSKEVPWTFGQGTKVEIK ... 2.21

In the following, a different binder is considered.
Record request: Kd value, item ADI-11830 IgG (antibody, V domains shown, IgG; also called Ab9) VH: EVQLVESGGGLVQPGGSLRLSCAASGFTFSSYWMSWVRQAPGKGLEWVANINTDGSEVYYVDSVKGRFTISRDNAKNSLYLQMNSLRAEDTAVYYCARDVGPGIAYQGHFDYWGQGTLVTVSS VL: DIQMTQSPSSLSASVGDRVTITCRASQVIYSYLNWYQQKPGKAPKLLIYAASSLKSGVPSRFSGSGSGTDFTLTISSLQPEDFATYYCQQVYDTPLTFGGGTKVEIK
1.2
